# System: HL 60 cells
# EXPERIMENT_NOTES: Cytotoxicity, colorimetric test (ALLEY et al.), HL 60
# Type: cell-based, human
# MEASUREMENT_CONTEXT: Homo sapiens, HL-60; concentration inhibiting 50% of cell growth; 9 concentrations
TEST_READOUT: IC50 (µM)
Report as a plain number; the unit µM is understood.

Requested read-out: IC50. Entry: CCCCCCCCCCCCCC(=O)N[C@@H](Cc1ccccc1)C(=O)O [N-myristoyl-(S)-phenylalanine] 12.8

And the next one, CCCCCCCCCCCCCC(=O)NCC(=O)O [N-myristoylglycine, reference compound] ? 20.5
